Where do the numbers come from? From ChEMBL document CHEMBL5058577.

system: HEK-293T; test: Multiplex assay against HEK293T; format: toxicity, cell-based; conditions: human, 48 h, 1 µM, compound concentration 1 uM, replicate 2
Non-standard residues stand in square brackets, D forms with d. Residues, ends and D or L forms follow the SMILES beside them.
assayReadout: Population Mitotic Cells (%)

compound: CSc1nc(NC2CCCC2)c([N+](=O)[O-])c(NC2CCCC2)n1
reportedMeasurement: 69

compound: Cc1cc(=O)n(C)c2cc(N3C(=O)CC[C@H](NS(=O)(=O)CC(C)C)[C@H]3c3ccc(Cl)cc3)ccc12
reportedMeasurement: 68

compound: Cc1nn(C)c2nc(NNC(=O)Nc3cc(Cl)nc(Cl)c3)cc(C(C)C)c12
reportedMeasurement: 81

compound: CN(C)C/C=C/C(=O)Nc1ccc(C(=O)N2CCCC(Nc3ncc(Cl)c(-c4c[nH]c5ccccc45)n3)C2)cc1 (configuration not stated)
reportedMeasurement: 18

compound: C[C@@H]1CC(=O)Nc2cccc(-c3ccc4c(c3)c(-c3cnn(C)c3)nn4C)c2N1
reportedMeasurement: 69

compound: CN1CCN(c2ccc(Nc3c4ccccc4nc4ccccc34)cc2)CC1.Cl.Cl.O
reportedMeasurement: 40

compound: S=C(NCCCc1c[nH]cn1)NCCCN(Cc1ccc(Cl)c(Cl)c1)c1ccc(Br)cn1
reportedMeasurement: 63

compound: O=c1ccc2ccc(OCCCCN3CCN(c4cccc5sccc45)CC3)cc2[nH]1
reportedMeasurement: 51

compound: OCCCNc1cc(-c2ccnc(Nc3cccc(Cl)c3)n2)ccn1
reportedMeasurement: 38

compound: COc1cc(OC2CCN(C(C)=O)CC2)ccc1C(=O)N1CCC(N2C(=O)OCc3ccccc32)CC1
reportedMeasurement: 66

compound: Cc1cc(-c2ccc3c(c2)CC[C@H]3N2CC3(CCN(C(=O)Cc4cn5cc(C)sc5n4)CC3)C2)ncn1
reportedMeasurement: 60

compound: CN1C[C@H](C(=O)N[C@]2(C)O[C@@]3(O)[C@@H]4CCCN4C(=O)[C@H](Cc4ccccc4)N3C2=O)C[C@@H]2c3cccc4[nH]cc(c34)C[C@H]21.CS(=O)(=O)O [DIHYDROERGOTAMINE MESYLATE]
reportedMeasurement: 71

compound: COc1cc(C(=O)N2CC[C@@H](O)[C@@H](N)C2)cc2nc(-c3cc4ccccc4n3CC3CC3)n(C)c12.Cl
reportedMeasurement: 36

compound: CCn1c(-c2nc3cc(C(=O)N4CCCC(N)C4)ccc3n2C)cc2ccccc21.Cl (configuration not stated)
reportedMeasurement: 85

compound: CC(C)C[C@@H]1NC(=O)[C@@H](C(C)C)NC(=O)[C@@H]2CCCN2C(=O)[C@@H](CC(=O)O)NC(=O)[C@@H](Cc2c[nH]c3ccccc23)NC1=O [BQ-123] (cyclo(L[dW][dD]P[dV]))
reportedMeasurement: 75

compound: CN1CCN2c3ccccc3Cc3ccccc3C2C1.Cl (configuration not stated) [MIANSERIN HYDROCHLORIDE]
reportedMeasurement: 62

compound: O=C(NCCNCC(O)COc1ccc(O)cc1)N1CCOCC1.O=C(NCCNCC(O)COc1ccc(O)cc1)N1CCOCC1.O=C(O)/C=C/C(=O)O (configuration not stated) [XAMOTEROL FUMARATE]
reportedMeasurement: 58

compound: CCC(=O)OCC(=O)[C@@]1(OC(=O)CC)[C@@H](C)C[C@H]2[C@@H]3CCC4=CC(=O)C=C[C@]4(C)[C@@]3(Cl)[C@@H](O)C[C@@]21C [BECLOMETHASONE DIPROPIONATE]
reportedMeasurement: 68

compound: COc1ccc2c(c1OCc1ccccc1)C[C@@H](C(=O)O)N(C(=O)C(c1ccccc1)c1ccccc1)C2
reportedMeasurement: 77

compound: C[C@H](NC(=O)CNC(=O)c1cccc(Cl)c1)c1ccccc1
reportedMeasurement: 70

compound: O=c1nc2[nH]c3ccccc3nc-2c(=O)[nH]1
reportedMeasurement: 72

compound: COCCCN1CCC(NC(=O)c2cc(Cl)c(N)c3c2OCC3)CC1 [PRUCALOPRIDE]
reportedMeasurement: 78

compound: CCCCC[C@H](O)/C=C/[C@H]1[C@H](O)CC(=O)[C@@H]1CCCCCCC(=O)O
reportedMeasurement: 86

compound: Cl.Cl.OCCOCCN1CCN(C(c2ccccc2)c2ccc(Cl)cc2)CC1 (configuration not stated) [HYDROXYZINE HYDROCHLORIDE]
reportedMeasurement: 53

compound: Cc1cc(O)c(-c2ccc([C@@H](C)CN(C)C)cc2)c2c1[nH]c(=O)c1sccc12
reportedMeasurement: 30

compound: Cc1sc2c(c1C)C(c1ccc(Cl)cc1)=N[C@H](CC(=O)OC(C)(C)C)c1nnc(C)n1-2
reportedMeasurement: 69

compound: C=CCN1C[C@H](C(=O)N(CCCN(C)C)C(=O)NCC)C[C@@H]2c3cccc4[nH]cc(c34)C[C@H]21
reportedMeasurement: 65
